For each of the compounds below, state its TGI.
# Tested on: PC-3 prostate
# measurementProtocol: NCI tumour cell line growth inhibition, 48 h

Here is how some compounds turned out for TGI.
- compound: "COc1cccc(-c2c(-c3ccccc3)[nH]c(C)c2C(=O)ONC(=O)c2ccccc2)c1"
  TGI: "23.9 µM"
- compound: "COC(=O)C1=NN2c3ccccc3CN([C@@H](C)c3ccccc3)C(=O)[C@@H]2[C@H]1c1ccccc1"
  TGI: "> 100 µM"
- compound: "N#Cc1c(N2CCN(c3ccc([N+](=O)[O-])cc3)CC2)[n+](=O)c2ccccc2n1[O-]"
  TGI: "> 100 µM"
- compound: "CCCCC(=O)Nc1ccc2c(C)cc(-c3ccc(-c4cc(-c5ccc(C)cc5)cc(-c5ccc(-c6cc(C)c7ccc(NC(=O)CCCC)nc7n6)cc5)n4)cc3)nc2n1"
  TGI: "> 100 µM"
- compound: "C1CN2CCNCCN(CCN1)CC2"
  TGI: "> 100 µM"

Look at each compound and report its TGI.
1. COc1cccc(/C=C\c2ccc(O)cc2)c1
2. [CH3][Sn]([CH3])([CH3])[O][N+](=O)[O-]
3. Cc1ccc(S(=O)(=O)Nc2ccc(-c3cc(-c4cccc(F)c4)c(C#N)c(N)n3)cc2)cc1
4. CC1=C([Se]CC(OC(=O)[C@@H](CO)NC(=O)OC(C)(C)C)C(=O)NCCCCCC(=O)OCc2ccccc2)C(=O)c2ccccc2C1=O (some centres not stated)
5. COC1C(O)C(C)OC(OC2CCC3(C)C(CCC4C3C(O)CC3(C)C(C5=CC(=O)OC5)CCC43O)C2)C1O (configuration not stated)
6. O=C(N/N=C/C=C/c1ccc([N+](=O)[O-])o1)c1ccc(C(=O)N/N=C/C=C/c2ccc([N+](=O)[O-])o2)cc1

Reply:
1. 99.5 µM
2. > 10 µM
3. 7.56 µM
4. 2.58 µM
5. 5.17 µM
6. > 52.3 µM

###

Assignment: determine reported GI50 for the given compounds.
# System: HCT-15 colon
# measurementProtocol: NCI tumour cell line growth inhibition, 48 h

Here's what some known entries look like.
- compoundString: "CSc1ccc(C(=O)/C=C/c2ccccc2Cl)cc1"
  GI50: "7.73 µM"
- compoundString: "CN(C)CCNC(=O)NC[C@H]1CC[C@@H]2[C@H](O1)c1cc(C(F)(F)F)ccc1N[C@H]2c1ccccc1"
  GI50: "1.02 µM"
- compoundString: "CCn1ccc(NS(=O)(=O)c2ccc(N)cc2)nc1=O"
  GI50: "> 100 µM"
- compoundString: "C#Cc1cccc(NC(=O)c2ccc(NC(=O)CCl)cc2)c1"
  GI50: "9.95 µM"
- compoundString: "CCCN1CCC(c2ccc(Nc3nc(Nc4cc(F)ccc4C(N)=O)c4cc[nH]c4n3)c(OC)c2)CC1"
  GI50: "0.54 µM"
- compoundString: "C/C(=N/N=C(N)N)c1ccc(NC(=O)Nc2ccc(/C(C)=N/N=C(N)N)cc2)cc1"
  GI50: "25.5 µM"

Each compound below has a recorded value; state its GI50.
1. CN1CCN(Cc2cc(NC(=O)c3cccc(C#Cc4cccc5[nH]nc(N)c45)c3)cc(C(F)(F)F)c2)CC1
2. COc1cnc2c(c1)C(=O)c1c-2n(CCCN2CCNCC2)c(=O)c2cc([N+](=O)[O-])ccc12
3. COCCn1cc(-c2csc(-c3c[nH]c4ccc(Br)cc34)n2)c2cccnc21

Reply:
1.81 µM
0.194 µM
3.14 µM
